- measured-target: Sphingosine 1-phosphate receptor 4 (Homo sapiens, UniProt O95977)
- Sequence (O95977 whole entry): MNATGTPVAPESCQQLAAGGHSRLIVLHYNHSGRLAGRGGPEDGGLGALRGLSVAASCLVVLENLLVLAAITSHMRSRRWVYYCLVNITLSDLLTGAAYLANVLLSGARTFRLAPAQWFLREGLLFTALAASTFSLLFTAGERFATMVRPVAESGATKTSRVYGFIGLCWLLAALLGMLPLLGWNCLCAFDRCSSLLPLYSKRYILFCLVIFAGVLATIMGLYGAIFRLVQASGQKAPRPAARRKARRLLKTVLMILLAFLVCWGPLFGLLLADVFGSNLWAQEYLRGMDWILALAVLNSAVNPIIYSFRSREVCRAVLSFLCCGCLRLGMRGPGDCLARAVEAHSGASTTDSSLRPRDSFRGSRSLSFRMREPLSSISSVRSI
- experimental-details: Displacement of [32P]S1P from recombinant human S1PR4 expressed in cell membranes pretreated for 30 mins followed by [32P]S1P addition measured after 60 mins by scintillation counting method
pIC50: −log10 of the molar value.
readout-kind: pIC50

# smiles-string, pIC50
rows = [
    ("Cc1nn(C)c2nc(NNC(=O)Nc3cc(Cl)nc(OC(C)C)c3)cc(C(C)C)c12", "< 6.00"),
]

Moving on to the next molecule.
Find the recorded pIC50 belonging to Cc1nn(C)c2nc(NNC(=O)Nc3cc(Cl)nc(OCC4CC4)c3)cc(C(C)C)c12 and report it.
< 6.00

----------
IC50 by entry:
- measured-target: Sphingosine 1-phosphate receptor 5 (Homo sapiens, UniProt Q9H228)
- Sequence (Q9H228 whole entry): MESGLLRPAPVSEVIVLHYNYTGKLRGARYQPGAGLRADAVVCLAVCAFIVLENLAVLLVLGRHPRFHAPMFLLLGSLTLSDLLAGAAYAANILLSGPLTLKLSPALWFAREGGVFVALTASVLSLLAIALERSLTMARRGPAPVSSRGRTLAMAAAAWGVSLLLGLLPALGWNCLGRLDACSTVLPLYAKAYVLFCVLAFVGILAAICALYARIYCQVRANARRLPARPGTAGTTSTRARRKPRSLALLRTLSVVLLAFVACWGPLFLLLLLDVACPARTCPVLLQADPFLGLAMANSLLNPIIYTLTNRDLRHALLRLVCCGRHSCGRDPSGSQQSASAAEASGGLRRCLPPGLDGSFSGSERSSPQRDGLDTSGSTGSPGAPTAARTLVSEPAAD
- experimental-details: Displacement of [32P]S1P from recombinant human S1PR5 expressed in cell membranes pretreated for 30 mins followed by [32P]S1P addition measured after 60 mins by scintillation counting method

# smiles-string, IC50
records = [
    ("Cc1nn(C)c2nc(NNC(=O)Nc3cc(Cl)nc(OCC4CC4)c3)cc(C(C)C)c12", "> 1000 nM"),
]

Moving on to the next molecule.
Find the recorded IC50 belonging to Cc1nn(C)c2nc(NNC(=O)Nc3cc(Cl)nc(OC(C)C)c3)cc(C(C)C)c12 and report it.
> 1000 nM

----------
- measured-target: Sphingosine 1-phosphate receptor 3 (Homo sapiens)
- Sequence (Q99500 whole entry): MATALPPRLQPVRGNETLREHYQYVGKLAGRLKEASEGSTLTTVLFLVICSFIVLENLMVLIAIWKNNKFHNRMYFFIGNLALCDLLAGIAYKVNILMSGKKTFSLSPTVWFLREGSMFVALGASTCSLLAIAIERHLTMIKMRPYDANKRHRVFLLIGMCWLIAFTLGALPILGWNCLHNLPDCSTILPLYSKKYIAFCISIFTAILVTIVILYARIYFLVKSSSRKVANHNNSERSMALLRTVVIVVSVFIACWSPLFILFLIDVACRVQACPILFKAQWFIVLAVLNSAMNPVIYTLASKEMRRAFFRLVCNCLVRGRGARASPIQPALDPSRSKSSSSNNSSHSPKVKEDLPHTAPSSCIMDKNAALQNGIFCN
- experimental-details: Displacement of [32P]S1P from recombinant human S1PR3 expressed in Chem1 cell membranes co-expressing Galpha15 pretreated for 30 mins followed by [32P]S1P addition measured after 60 mins by scintillation counting method
pIC50: −log10 of the molar value.
pIC50 by entry:

# smiles-string, measured-target, pIC50
measured = [
    ("Cc1nn(C)c2nc(NNC(=O)Nc3cc(Cl)nc(OC(C)C)c3)cc(C(C)C)c12", "Sphingosine 1-phosphate receptor 3 (Homo sapiens)", "< 6.00"),
]

Find the recorded pIC50 belonging to Cc1nn(C)c2nc(NNC(=O)Nc3cc(Cl)nc(OCC4CC4)c3)cc(C(C)C)c12 and report it.
< 6.00

Find the recorded pIC50 belonging to Cc1nn(C)c2nc(NNC(=O)Nc3cc(Cl)nc(Cl)c3)cc(C(C)C)c12 and report it.
< 6.00

----------
- measured-target: Sphingosine 1-phosphate receptor 1 (Homo sapiens, UniProt P21453)
- Sequence (P21453 whole entry): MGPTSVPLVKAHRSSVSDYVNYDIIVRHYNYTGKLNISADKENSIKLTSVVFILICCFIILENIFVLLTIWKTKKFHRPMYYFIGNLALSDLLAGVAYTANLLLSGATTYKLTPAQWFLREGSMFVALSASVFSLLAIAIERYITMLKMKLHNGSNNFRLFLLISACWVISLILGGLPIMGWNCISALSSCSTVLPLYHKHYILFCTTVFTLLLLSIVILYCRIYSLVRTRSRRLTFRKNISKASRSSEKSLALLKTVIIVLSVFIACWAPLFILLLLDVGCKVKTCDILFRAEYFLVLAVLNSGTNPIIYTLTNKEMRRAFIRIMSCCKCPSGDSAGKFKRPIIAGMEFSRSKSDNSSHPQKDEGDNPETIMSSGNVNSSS
- experimental-details: Displacement of [32P]S1P from recombinant human S1PR1 expressed in CHOK1 cell membranes pretreated for 30 mins followed by [32P]S1P addition measured after 60 mins by scintillation counting method
pIC50: −log10 of the molar value.
pIC50 by entry:

Consider the reported pIC50 for these compounds:
# smiles-string, measured-target, pIC50
records = [
    ("Cc1nn(C)c2nc(NNC(=O)Nc3cc(Cl)nc(Cl)c3)cc(C(C)C)c12", "Sphingosine 1-phosphate receptor 1 (Homo sapiens, UniProt P21453)", "< 6.00"),
    ("Cc1nn(C)c2nc(NNC(=O)Nc3cc(Cl)nc(OCC4CC4)c3)cc(C(C)C)c12", "Sphingosine 1-phosphate receptor 1 (Homo sapiens, UniProt P21453)", "< 6.00"),
]

Find the recorded pIC50 belonging to Cc1nn(C)c2nc(NNC(=O)Nc3cc(Cl)nc(OC(C)C)c3)cc(C(C)C)c12 and report it.
< 6.00

----------
- measured-target: UniProtKB O95136
- Sequence (O95136 whole entry): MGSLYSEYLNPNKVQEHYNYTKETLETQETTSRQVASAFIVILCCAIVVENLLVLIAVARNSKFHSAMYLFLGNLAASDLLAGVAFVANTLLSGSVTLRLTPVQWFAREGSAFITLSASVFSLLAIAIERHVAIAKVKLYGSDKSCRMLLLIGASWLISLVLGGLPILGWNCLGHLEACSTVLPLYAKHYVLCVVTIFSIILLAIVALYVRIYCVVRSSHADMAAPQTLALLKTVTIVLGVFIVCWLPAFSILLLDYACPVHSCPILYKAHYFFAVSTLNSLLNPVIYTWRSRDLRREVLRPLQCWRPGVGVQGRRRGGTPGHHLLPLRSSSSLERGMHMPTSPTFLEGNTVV
- experimental-details: Displacement of [32P]S1P from recombinant human S1PR2 expressed in Chem1 cell membranes co-expressing Galpha15 pretreated for 30 mins followed by [32P]S1P addition measured after 60 mins by scintillation counting method
IC50 by entry:

Consider the reported IC50 for these compounds:
# smiles-string, readout-kind, result-value
rows = [
    ("COc1cc(-c2nnc(-c3cc(C(C)C)c4c(C)nn(C)c4n3)[nH]2)cc(Cl)n1", "IC50", "> 1000 nM"),
    ("Cc1nn(C)c2nc(NNC(=O)Nc3nc4c(Cl)nc(Cl)cc4[nH]3)cc(C(C)C)c12", "IC50", "> 1000 nM"),
    ("Cc1nn(C)c2nc(NNC(=O)Nc3cc(Cl)n4ccnc4c3)cc(C(C)C)c12", "IC50", "> 1000 nM"),
]

Find the recorded IC50 belonging to COc1cc(NC(=O)NC(=O)c2cc(C(C)C)c3c(n2)c(C)nn3C)cc(Cl)n1 and report it.
> 1000 nM

Find the recorded IC50 belonging to Cc1nn(C)c2nc(NNC(=O)Nc3cc(Cl)nc(OCC4CC4)c3)cc(C(C)C)c12 and report it.
56.5 nM

Find the recorded IC50 belonging to Cc1nn(C)c2nc(NNC(=O)Nc3cc(Cl)nc(OC(C)C)c3)cc(C(C)C)c12 and report it.
29.1 nM
